The origin of these recorded values is patent US6903079B2.

Target: UniProt:P11103
Test: PARS inhibition by nucleoside derivatives (in vitro inflammation models)
Type: cell-based
Conditions: 10 μM; values marked *, asterisk not explained; read-out: Inhibition at 10 μM (values marked *)
Label rule, in plain words: inhibition at 10 µM of 80% and up is T, under 80% is F.

Below, 6 compounds whose answers are already recorded.
Compound	Label class
CN(CC(=O)Nc1cccc2c1CNC2=O)C(=O)C1OC(n2cnc3c(N)ncnc32)C(O)C1O (stereo not drawn)	F
O=C(CCC(=O)Nc1cccc2c1CNC2=O)NCC1OC(n2cnc3c(NCC4CC4)ncnc32)C(O)C1O (stereo not drawn)	F
CCN(CC(=O)Nc1cccc2c1CNC2=O)C(=O)C1OC(n2cnc3c(N)ncnc32)C(O)C1O (stereo not drawn)	F
Nc1ncnc2c1ncn2C1OC(C(=O)NCC(=O)Nc2cccc3c2CNC3=O)C(O)C1O (stereo not drawn)	T
CN(CCCCCCCC(=O)Nc1cccc2c1CNC2=O)C(=O)C1OC(n2cnc3c(N)ncnc32)C(O)C1O (stereo not drawn)	F
Nc1ncnc2c1ncn2C1OC(C(=O)NCCC(=O)Nc2cccc3c2CNC3=O)C(O)C1O (stereo not drawn)	F

// query Confirm if inhibition at 10 µM reported for the compound CCN(CCC(=O)Nc1cccc2c1CNC2=O)C(=O)C1OC(n2cnc3c(N)ncnc32)C(O)C1O (stereo not drawn) is 80% or above.
// result T

// query Confirm if inhibition at 10 µM reported for the compound Nc1ncnc2c1ncn2C1OC(C(=O)N2CCN(CC(=O)Nc3cccc4c3CNC4=O)CC2)C(O)C1O (stereo not drawn) is 80% or above.
// result T

// query Confirm if inhibition at 10 µM reported for the compound Nc1ncnc2c1ncn2C1OC(CNC(=O)CC(O)CC(=O)Nc2cccc3c2CNC3=O)C(O)C1O (stereo not drawn) is 80% or above.
// result F

###

Target: PARS (Mus musculus, UniProt P11103)
Assay: PARS inhibition by nucleoside derivatives (in vitro inflammation models)
Format: cell-based
Conditions: read-out: Inhibition at 100 μM
// map inhibition at 100 µM to label using Low: < 60%; Medium: ≥ 60% and < 80%; High: ≥ 80%

Below, 5 compounds whose answers are already recorded.
Compound	Label class
Nc1ncnc2c1ncn2[C@@H]1OC(CNC(=O)c2c(F)ccc(F)c2C(=O)Nc2cccc3c2CNC3=O)[C@@H](O)[C@H]1O (stereo partly drawn)	Low
NCC1OC(n2cnc3c(N)ncnc32)C(O)C1O (stereo not drawn)	Low
Nc1ncnc2c1ncn2C1OC(CNC(=O)C(F)(F)C(F)(F)C(F)(F)C(=O)Nc2cccc3c2CNC3=O)C(O)C1O (stereo not drawn)	High
CC1(C)OC2C(CNC(=O)CCCC(=O)Nc3cccc4c3CNC4=O)OC(n3cnc4c(N)ncnc43)C2O1 (stereo not drawn)	Medium
Nc1ncnc2c1ncn2C1OC(CNC(=O)CCn2ccc3c2CCCC3=O)C(O)C1O (stereo not drawn)	Low

// query # bin lookup: classify CC1(C)OC2C(CN3C(=O)c4ccccc4C3=O)OC(n3cnc4c(N)ncnc43)C2O1 (stereo not drawn) by its inhibition at 100 µM
// result Low

// query # bin lookup: classify NC(=O)c1ccccc1-c1cccc(NC(=O)CCC(=O)NCC2OC(n3cnc4c(N)ncnc43)C(O)C2O)c1 (stereo not drawn) by its inhibition at 100 µM
// result Medium

###

Biological target: poly (ADP-ribose) synthetase (PARS) (Mus musculus, UniProt P11103)
Construct: endogenous in cells; host or cells: J774 macrophages
Sequence (P11103 whole entry): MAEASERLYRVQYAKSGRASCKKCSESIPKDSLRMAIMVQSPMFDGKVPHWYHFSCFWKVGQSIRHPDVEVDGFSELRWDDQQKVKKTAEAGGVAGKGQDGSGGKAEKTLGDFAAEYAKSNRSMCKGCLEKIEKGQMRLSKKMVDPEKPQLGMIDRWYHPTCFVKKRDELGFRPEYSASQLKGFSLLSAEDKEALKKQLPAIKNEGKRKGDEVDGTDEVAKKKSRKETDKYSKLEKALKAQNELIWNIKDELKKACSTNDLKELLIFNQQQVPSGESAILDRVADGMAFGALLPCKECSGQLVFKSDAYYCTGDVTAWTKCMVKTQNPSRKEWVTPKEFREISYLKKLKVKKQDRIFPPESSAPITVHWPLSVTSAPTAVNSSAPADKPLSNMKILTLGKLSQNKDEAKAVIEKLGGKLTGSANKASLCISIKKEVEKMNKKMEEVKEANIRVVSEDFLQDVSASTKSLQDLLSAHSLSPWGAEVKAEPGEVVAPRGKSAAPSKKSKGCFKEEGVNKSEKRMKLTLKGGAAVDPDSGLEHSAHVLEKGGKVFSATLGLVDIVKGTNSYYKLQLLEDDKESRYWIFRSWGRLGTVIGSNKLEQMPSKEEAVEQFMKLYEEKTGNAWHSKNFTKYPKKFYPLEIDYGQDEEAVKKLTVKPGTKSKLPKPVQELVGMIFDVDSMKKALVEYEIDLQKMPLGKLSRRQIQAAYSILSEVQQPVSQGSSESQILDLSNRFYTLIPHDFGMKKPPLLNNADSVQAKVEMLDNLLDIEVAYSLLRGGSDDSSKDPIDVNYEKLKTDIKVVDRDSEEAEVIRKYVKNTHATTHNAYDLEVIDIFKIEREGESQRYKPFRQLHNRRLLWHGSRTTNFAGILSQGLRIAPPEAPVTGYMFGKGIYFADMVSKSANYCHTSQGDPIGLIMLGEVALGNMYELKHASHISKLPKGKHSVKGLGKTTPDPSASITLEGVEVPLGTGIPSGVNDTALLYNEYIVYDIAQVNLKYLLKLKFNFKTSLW
Test: Peroxynitrite-induced PARS activation and cell injury in J774 macrophages
Assay type: cell-based
Details: J774 macrophages exposed to peroxynitrite
# inhibition at 10 µM values compiled below
A number alone suffices; assume %.

Here are 6 compounds together with their reported answers.
Compound	Assay target	inhibition at 10 µM / %
O=C1NCc2c(F)cccc21	poly (ADP-ribose) synthetase (PARS) (Mus musculus, UniProt P11103)	27
O=C(CN1CCNCC1)Nc1cccc2c1CNC2=O	poly (ADP-ribose) synthetase (PARS) (Mus musculus, UniProt P11103)	61
COc1cccc2c1CNC2=O	poly (ADP-ribose) synthetase (PARS) (Mus musculus, UniProt P11103)	64
Nc1cccc2c1CNC2=O [Compound 4, 4-amino-2,3-dihydro-1H-isoindol-1-one]	poly (ADP-ribose) synthetase (PARS) (Mus musculus, UniProt P11103)	27
O=C1NCc2ccccc21	poly (ADP-ribose) synthetase (PARS) (Mus musculus, UniProt P11103)	33
O=C1NCc2c(O)cccc21 [Compound 27, 4-hydroxy-2,3-dihydro-1H-isoindol-1-one]	poly (ADP-ribose) synthetase (PARS) (Mus musculus, UniProt P11103)	60

Could you now look at the following compound, please?
Reported inhibition at 10 µM ( O=C1NCc2c1cccc2[N+](=O)[O-] [Compound 3, 4-nitro-2,3-dihydro-1H-isoindol-1-one] ) = 12

###

Target: PARS (Mus musculus)
Assay: PARS inhibition by nucleoside derivatives (in vitro inflammation models)
Assay type: cell-based
Settings: read-out: Inhibition at 100 μM
Property: inhibition at 100 µM (%)
A number alone suffices; assume %.

Here are 6 molecules together with their reported answers.
Molecule	Experimental value
Nc1ncnc2c1ncn2C1OC(CNC(=O)CCCCCC(=O)Nc2cccc3c2CNC3=O)C(O)C1O (stereo not shown)	100
CC1(C)OC2C(CNC(=O)CCn3ccc4c3CCCC4=O)OC(n3cnc4c(N)ncnc43)C2O1 (stereo not shown)	25
Nc1ncnc2c1ncn2C1OC(CNC(=O)CCCCCCCCC(=O)Nc2cccc3c2CNC3=O)C(O)C1O (stereo not shown)	74
Nc1ncnc2c1ncn2[C@@H]1OC(CNC(=O)/C=C/c2ccc(C(=O)Nc3cccc4c3CNC4=O)cc2)[C@@H](O)[C@H]1O (stereo partly shown)	51.4
O=C(CCC(=O)Nc1cccc2c1CNC2=O)NCC1OC(n2ccc(O)nc2=O)C(O)C1O (stereo not shown)	83
Nc1ncnc2c1ncn2C1OC(CNC(=O)COCC(=O)Nc2cccc3c2CNC3=O)C(O)C1O (stereo not shown)	100

Could you now look at the following molecule, please?
Reported inhibition at 100 µM ( Nc1ncnc2c1ncn2C1OC(CNC(=O)CCCCCCCC(=O)Nc2cccc3c2CNC3=O)C(O)C1O (stereo not shown) ) = 100

###

Biological target: PARS (Mus musculus)
Assay: PARS inhibition by nucleoside derivatives (in vitro inflammation models)
Type: cell-based
Conditions: read-out: Inhibition at 10 μM
Property: inhibition at 10 µM (%)
A number alone suffices; assume %.

Here are 5 molecules together with their reported answers.
Molecule	Assay target	inhibition at 10 µM / %
Nc1ncnc2c1ncn2C1OC(CNC(=O)CCCCCCCCC(=O)Nc2cccc3c2CNC3=O)C(O)C1O (stereo not shown)	PARS (Mus musculus)	34
Nc1ncnc2c1ncn2C1OC(CNC(=O)CCCCCCCC(=O)Nc2cccc3c2CNC3=O)C(O)C1O (stereo not shown)	PARS (Mus musculus)	62
O=C(CCC(=O)Nc1cccc2c1CNC2=O)NCC1OC(n2ccc(O)nc2=O)C(O)C1O (stereo not shown)	PARS (Mus musculus)	61
CC1(C)OC2C(CNC(=O)CCn3ccc4c3CCCC4=O)OC(n3cnc4c(N)ncnc43)C2O1 (stereo not shown)	PARS (Mus musculus)	15
NC(=O)c1cccc(NC(=O)CCC(=O)NCC2OC(n3cnc4c(N)ncnc43)C(O)C2O)c1 (stereo not shown)	PARS (Mus musculus)	52

Reported inhibition at 10 µM ( NC(=O)c1ccccc1-c1cccc(NC(=O)CCC(=O)NCC2OC(n3cnc4c(N)ncnc43)C(O)C2O)c1 (stereo not shown) ) = 5

Reported inhibition at 10 µM ( Nc1ncnc2c1ncn2[C@@H]1OC(CNC(=O)c2cc(Cl)c(Cl)cc2C(=O)Nc2cccc3c2CNC3=O)[C@@H](O)[C@H]1O (stereo partly shown) ) = 0

###

# inhibition at 100 µM values compiled below
Molecular target: UniProt P11103
Assay: PARS inhibition by nucleoside derivatives (in vitro inflammation models)
Format: cell-based
Details: read-out: Inhibition at 100 μM

Compound	Experimental value
CC1(C)OC2C(CNC(=O)CCC(=O)Nc3cccc4c3CNC4=O)OC(n3cnc4c(N)ncnc43)C2O1 (centres unmarked)	60%
Nc1ncnc2c1ncn2[C@@H]1OC(CNC(=O)c2cc(Cl)c(Cl)cc2C(=O)Nc2cccc3c2CNC3=O)[C@@H](O)[C@H]1O (some centres unmarked)	55%
NC(=O)c1cccc(NC(=O)CCC(=O)NCC2OC(n3cnc4c(N)ncnc43)C(O)C2O)c1 (centres unmarked)	73%

Reported inhibition at 100 µM ( Nc1ncnc2c1ncn2C1OC(CNC(=O)CNC(=O)Nc2cccc3c2CNC3=O)C(O)C1O (centres unmarked) ) = 100%

Reported inhibition at 100 µM ( Nc1ncnc2c1ncn2C1OC(CNC(=O)CC(O)CC(=O)Nc2cccc3c2CNC3=O)C(O)C1O (centres unmarked) ) = 81%

Reported inhibition at 100 µM ( Nc1ncnc2c1ncn2C1OC(CNC(=O)C(O)C(O)C(=O)Nc2cccc3c2CNC3=O)C(O)C1O (centres unmarked) ) = 100%

Reported inhibition at 100 µM ( Nc1ncnc2c1ncn2C1OC(CNCC(=O)Nc2cccc3c2CNC3=O)C(O)C1O (centres unmarked) ) = 58%

Reported inhibition at 100 µM ( Nc1ncnc2c1ncn2C1OC(CNC(=O)CC(=O)Nc2cccc3c2CNC3=O)C(O)C1O (centres unmarked) ) = 100%
